Test system: T-47D breast
Test: NCI-60 one-dose screen, 48 h
Settings: 10 µM unless noted
Compounds without any hit were thinned out: in the full panel of roughly 83,000, 20% have a hit. Activity calls are given as the source filed them. The calls were made as follows: active = growth percent below 10; inactive = the rest.
Classes used: YES (active), NO (inactive)

molecule	label
Cc1cccc[n+]1CCC[n+]1ccccc1C	NO
CC(=O)N1N=C2N(Cc3ccccc3)C(=O)c3c(sc4c3CCCC4)N2C1c1cn(-c2ccccc2)nc1-c1ccc(Cl)cc1 (stereo not given)	NO
COc1ccc(CCNC=O)cc1OC	NO
NS(=O)(=O)c1ccc(Nc2nc(O)c(/C=C3\C=Nc4ccccc43)s2)cc1	NO
CCCC(=O)Oc1ccc(/C(=C(\C)c2ccc(OC)cc2)c2ccc(OCCN3CCCCC3)cc2)cc1	NO
O=C(Nc1ccccc1Cl)c1c[nH]c(=O)c(-c2ccc(N3CCCOC4(CC4)C3)cc2)c1	NO
COc1ccc(-c2ccc(NC(=O)Nc3cccc(C(F)(F)F)c3)c(C)n2)cc1	NO
O=C1c2ccccc2OC=C(c2ccccc2)N1CCCCN1CCCCC1	YES
CC(C)(C)C(=O)/C=c1/[nH]c(=O)/c(=C/c2ccccc2O)s1	NO
O=C(O)c1ccc(-n2cc(/C=N/Nc3ccc(F)cc3)c(-c3cccc(C(F)(F)F)c3)n2)cc1	NO

###

System: UACC-62 melanoma
Assay: NCI-60 one-dose screen, 48 h
Conditions: 10 µM unless noted
This is part of a sample that, as a whole, favours compounds with a hit. Of some 83,000 tested, about 20% had one in any assay. Activity calls are given as the source filed them. Rule for the calls: active = growth percent below 10; inactive = the rest.
Classes used: yes for active, no for inactive

compound	label
COc1ccc(-c2nnc(NC(=O)CN3CCN(c4cc5c(cc4F)c(=O)c(C(=O)O)cn5C4CC4)CC3)s2)cc1OC	no
CNCCCOc1c(Br)cc(CCNC(=O)/C(Cc2cc(Br)c(OC)c(Br)c2)=N/O)cc1Br	yes
Nc1c(C(=O)O)[nH]c(=O)[nH]c1=O	no
C=C1C(=O)O[C@H]2[C@H]1CC/C(C(=O)Nc1ccc(OC)c(C(N)=O)c1O)=C\CC[C@@]1(C)O[C@@H]21	no
CC(C)[C@@H]1NC(=O)[C@]2(C)CSC(=N2)c2ccnc(c2)CNC(=O)C[C@@H](/C=C/CCS)OC1=O	yes
COc1cccc(/C=N/C(=S)NC2(C)C3CCC(C3)C2(C)C)c1O (centres undefined)	no
O=C(Nc1cccc(-n2ccc3c(NC(=O)c4ccccc4)nccc32)c1)Nc1ccc(Cl)c(C(F)(F)F)c1	no
COc1ccc(NC(=O)Nc2ccc(-c3ccc(OC)c(OC)c3)nc2C)cc1	no
COc1cccc(-c2nc3sccn3c2-c2ccnc(NCCNC(=O)Nc3cccc(C(F)(F)F)c3)n2)c1	no
O=C1C(Cl)=C(Nc2cccc3cc4ccccc4nc23)C(=O)c2ccccc21	no
NS(=O)(=O)c1ccc(-n2nc(-c3ccc(Cl)cc3)ccc2=O)cc1	no
COc1ccc2c(c1)nnc1c3cccnc3[nH]c21	yes
Nc1ccc(S(=O)(=O)Nc2cc(I)cc(I)c2)cc1	no
CC(C)NCC(O)COc1ccc(CC(N)=O)cc1 (centres undefined)	no
COc1ccc(Cn2cc(COc3ccc4c5ccnc(C)c5n(CCCc5ccccc5)c4c3)nn2)cc1	no
Cc1cc(N2CCOCC2)nc(N(CCNc2ccnc3cc(Cl)ccc23)Cc2ccco2)n1	no
Cc1cn(-c2cc(C(=O)Nc3cccc(-n4ccc5c(NC(=O)c6ccccc6)nccc54)c3)cc(C(F)(F)F)c2)cn1	no
COc1cc(Nc2ncccc2C(=O)Nc2nc3ccc(F)cc3s2)cc(OC)c1OC	no
Cc1nccc2c3ccc(OCc4cn(Cc5ccc(Br)cc5)nn4)cc3n(CCCc3ccccc3)c12	no
